tested on: VRE-UCD3 (vancomycin resistant enterococci); experiment: MIC assay, VRE strain UCD-3; assay type: cell-based; settings: Enterococcus, VRE; 25 μg/mL Vancomycin - 24 h; read-out: MIC Assay VRE Strains: UCD-3 van25
Listing of entries alongside the reported MIC.
Parameter Measured: MIC

1. N=C(N)NCC(=O)Nc1cc(C(=O)NCCNC(=O)c2cc(NC(=O)CNC(=N)N)cn2CC2CC2)n(CC2CC2)c1 [Compound 174] ... > 45.5 µM
2. NCC(=O)Nc1cc(C(=O)NCCNC(=O)c2cc(NC(=O)CN)cn2CC2CC2)n(CC2CC2)c1 [Compound 169] ... > 45.5 µM
3. Cn1cc(NC(=O)c2cc(NC(=O)CN)cn2C)cc1C(=O)NCCCNCCCNC(=O)c1cc(NC(=O)c2cc(NC(=O)CN)cn2C)cn1C [Compound 113] ... 11.4 µM
4. O=C(NC1CCC(NC(=O)c2cc(NC(=O)C3CCCN3)cn2CC2CC2)CC1)c1cc(NC(=O)C2CCCN2)cn1CC1CC1 (stereo not shown) [Compound 171] ... > 45.5 µM

---

Listing of entries alongside the reported MIC Assay E coli.
test system: E coli; assay: MIC assay, E coli; type: cell-based
Parameter Measured: MIC Assay E coli (µM)

1. CC(C)CCn1cc(NC(=O)CN)cc1C(=O)Nc1ccc(NC(=O)c2cc(NC(=O)CN)cn2CCC(C)C)cc1 [Compound 188a] ... 22.7
2. CC(C)CCn1cc(NC(=O)CN)cc1C(=O)Nc1ccc2ccc(NC(=O)c3cc(NC(=O)CN)cn3CCC(C)C)cc2c1 [Compound 188b] ... 22.7

---

MIC values recorded for Candida albicans
Parameter Measured: MIC

1. N=C(N)NCC(=O)Nc1cc(C(=O)NCCNC(=O)c2cc(NC(=O)CNC(=N)N)cn2CC2CC2)n(CC2CC2)c1 ... > 44.4 µM
2. NCC(=O)Nc1cc(C(=O)NCCNC(=O)c2cc(NC(=O)CN)cn2CC2CC2)n(CC2CC2)c1 ... > 44.4 µM
3. O=C(NC1CCC(NC(=O)c2cc(NC(=O)C3CCCN3)cn2CC2CC2)CC1)c1cc(NC(=O)C2CCCN2)cn1CC1CC1 (stereo not drawn) ... > 44.4 µM
4. Cn1cc(NC(=O)c2cc(NC(=O)CN)cn2C)cc1C(=O)NCCCNCCCNC(=O)c1cc(NC(=O)c2cc(NC(=O)CN)cn2C)cn1C ... > 44.4 µM
5. CC/N=C(/NCCN(C)C)Nc1cc(C(=O)Nc2ccc(NC(=O)c3cc(N/C(=N/CC)NCCN(C)C)cn3CCC(C)C)cc2)n(CCC(C)C)c1 ... 11.1 µM
6. CC(C)CCn1cc(NC(=O)CNC(=N)N)cc1C(=O)Nc1ccc(NC(=O)c2cc(NC(=O)CNC(=N)N)cn2CCC(C)C)cc1 [Compound 189a] ... 22.2 µM

---

Listing of entries alongside the reported MIC Assay VRE Strains: BM4147 van25.
system: VRE-BM4147 (vancomycin resistant enterococci); test: MIC assay, VRE strain BM4147; assay type: cell-based; conditions: 25 μg/mL Vancomycin - 24 h
Parameter Measured: MIC Assay VRE Strains: BM4147 van25

1. Cn1cc(NC(=O)CN)cc1C(=O)Nc1cc(C(=O)NC2CCC(CC3CCC(NC(=O)c4cc(NC(=O)c5cc(NC(=O)CN)cn5C)cn4C)CC3)CC2)n(C)c1 (stereo not drawn) ... >45.5 µM
2. CC(C)C(N)C(=O)Nc1cc(C(=O)NCCNC(=O)c2cc(NC(=O)C(N)C(C)C)cn2CC2CC2)n(CC2CC2)c1 (stereo not drawn) ... >45.5 µM
3. Cn1cc(NC(=O)c2cc(NC(=O)CN)cn2C)cc1C(=O)NCCCN(CCCNC(=O)c1cc(NC(=O)c2cc(NC(=O)CN)cn2C)cn1C)C(=O)OCc1ccccc1 ... >45.5 µM
4. NCCCC(N)C(=O)N1CCCC1C(=O)Nc1cc(C(=O)NC2CCC(NC(=O)c3cc(NC(=O)C4CCCN4C(=O)C(N)CCCN)cn3CC3CC3)CC2)n(CC2CC2)c1 (stereo not drawn) ... >45.5 µM
5. Cn1cc(NC(=O)c2cc(NC(=O)c3cc(NC(=O)CN)cn3C)cn2C)cc1C(=O)NCCCN(CCCN)CCCNC(=O)c1cc(NC(=O)c2cc(NC(=O)c3cc(NC(=O)CN)cn3C)cn2C)cn1C ... >45.5 µM
6. Cn1cc(NC(=O)c2cc(NC(=O)CN)cn2C)cc1C(=O)NCCCN(CCCNC(=O)c1cc(NC(=O)c2cc(NC(=O)CN)cn2C)cn1C)CCCNC(=O)c1cc(NC(=O)c2cc(NC(=O)CN)cn2C)cn1C ... 22.7 µM
7. NC(Cc1c[nH]cn1)C(=O)Nc1cc(C(=O)NC2CCC(NC(=O)c3cc(NC(=O)C(N)Cc4c[nH]cn4)cn3CC3CC3)CC2)n(CC2CC2)c1 (stereo not drawn) ... >45.5 µM
8. Cn1cc(NC(=O)CNC(=N)N)cc1C(=O)Nc1ccc2[nH]c(NC(=O)c3cc(NC(=O)CNC(=N)N)cn3C)nc2c1 ... 45.5 µM
9. Cn1cc(NC(=O)CCCNC(=N)N)cc1C(=O)Nc1ccc2[nH]c(NC(=O)c3cc(NC(=O)CCCNC(=N)N)cn3C)nc2c1 ... >45.5 µM
10. Cn1cc(NC(=O)CCNC(=N)N)cc1C(=O)Nc1ccc2[nH]c(NC(=O)c3cc(NC(=O)CCNC(=N)N)cn3C)nc2c1 ... >45.5 µM
11. CC(C)CCn1cc(NC(=O)CN)cc1C(=O)Nc1ccc(NC(=O)c2cc(NC(=O)CN)cn2CCC(C)C)cc1 [Compound 188a] ... 11.4 µM
12. Cn1cc(NC(=O)c2cc(NC(=O)CN)cn2C)cc1C(=O)NCCNC(=O)c1cc(NC(=O)c2cc(NC(=O)CN)cn2C)cn1C ... >45.5 µM
